Values from patent US12551500B2

testedTarget: DCP2 enzyme (Schizosaccharomyces pombe)
Construct: purchased New England Biolabs
Sequence (O13828 1-243 limits assumed): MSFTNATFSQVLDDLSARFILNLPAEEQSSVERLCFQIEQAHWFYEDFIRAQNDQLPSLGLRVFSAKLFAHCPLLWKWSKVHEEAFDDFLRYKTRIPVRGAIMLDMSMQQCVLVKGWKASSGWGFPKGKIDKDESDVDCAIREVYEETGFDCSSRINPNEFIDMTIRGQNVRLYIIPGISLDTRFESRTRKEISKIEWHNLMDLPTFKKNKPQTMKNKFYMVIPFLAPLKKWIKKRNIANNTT
Sequence (Q9P805 whole entry partner): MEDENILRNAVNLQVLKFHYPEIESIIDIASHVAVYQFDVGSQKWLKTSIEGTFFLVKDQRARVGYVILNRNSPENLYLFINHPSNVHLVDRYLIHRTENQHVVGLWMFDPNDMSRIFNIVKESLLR
Sequence (Q10108 155-180 partner limits assumed): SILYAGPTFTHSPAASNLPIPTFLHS
procedureText: Decapping enzyme stability test
Assay type: biochemical
conditionContext: difference to YK-CAP-001
Each item that follows carries a reported decapping rate lower than that of YK-CAP-001.
Use % as the unit, but write only the number.

COC1C(OP(=O)([O-])OC[C@H]2O[C@@H](n3cnc4c(=O)[nH]c(N)nc43)C(O)C2O)[C@@H](COP(=O)(O)OP(=O)(O)OP(=O)(O)OC[C@]23O[C@@H]([n+]4cn(C)c5c(=O)[nH]c(N)nc54)C(O[C@H]2CCS(C)(=O)=O)C3O)O[C@H]1n1cnc2c(N)ncnc21 (stereo partly shown) [YK-CAP-005] : 13.5
COC1C(OP(=O)([O-])OC[C@H]2O[C@@H](n3cnc4c(=O)[nH]c(N)nc43)C(O)C2O)[C@@H](COP(=O)(O)OP(=O)(O)OP(=O)(O)OC[C@]23O[C@@H]([n+]4cn(C)c5c(=O)[nH]c(N)nc54)C(O[C@H]2CCS(=O)(=O)N(C)C)C3O)O[C@H]1n1cnc2c(N)ncnc21 (stereo partly shown) [YK-CAP-006] : 15.1
COC1C(OP(=O)([O-])OC[C@H]2O[C@@H](n3cnc4c(=O)[nH]c(N)nc43)C(O)C2O)[C@@H](COP(=O)(O)OP(=O)(O)OP(=O)(O)OC[C@]23O[C@@H]([n+]4cn(C)c5c(=O)[nH]c(N)nc54)C(O[C@H]2CC(F)F)C3O)O[C@H]1n1cnc2c(N)ncnc21 (stereo partly shown) [YK-CAP-004] : 16.0

Could you now consider this next compound?
Sample COC1C(OP(=O)([O-])OC[C@H]2O[C@@H](n3cnc4c(=O)[nH]c(N)nc43)C(O)C2O)[C@@H](COP(=O)(O)OP(=O)(O)OP(=O)(O)OC[C@]23O[C@@H]([n+]4cn(C)c5c(=O)[nH]c(N)nc54)C(O[C@H]2CC(=O)N(C)C)C3O)O[C@H]1n1cnc2c(N)ncnc21 (stereo partly shown) [YK-CAP-003] — what was its decapping rate lower than that of YK-CAP-001?
14.5
